Species on record: Rattus norvegicus
Assay notes: Open TG-GATES - Regimen: Daily Repeat
Format: toxicity, organism-based, Sprague-Dawley
Set-up: regimen Daily Repeat, gender Male, age 6 weeks
Condition label: in vivo, po, 0 mg/kg, […], tissue Blood, route gavage, dose level Control, time 14 day
Property measured: WBC
Answer format: value, then unit.

// worked examples, WBC included
• CN(C)CCC(c1ccc(Cl)cc1)c1ccccn1 (stereo not drawn) = 90.4 x10_2/uL
• Brc1ccccc1 = 89.1 x10_2/uL

// next entry
What does the data say about its WBC? Entry: Nc1c2c(nc3ccccc13)CCCC2
91.1 x10_2/uL

----------
Species: Rattus norvegicus
Assay notes: Open TG-GATES - Regimen: Single
Assay type: toxicity, organism-based, Sprague-Dawley
Set-up: regimen Single, gender Male, age 6 weeks
Condition label: in vivo, po, 0 mg/kg, 9 h, tissue Plasma, route gavage, dose level Control
IP values by entry
Give just the number in mg/dL; leave the unit off.

• CCOc1ccc(NC(C)=O)cc1 = 9.8
• CC(C)NNC(=O)c1ccncc1 = 9.8
• CN/C(=N/CCSCc1nc[nH]c1C)NC#N = 10

// next entry
What does the data say about its IP? Entry: COC(=O)C1=C(C)NC(C)=C(C(=O)OC)C1c1ccccc1[N+](=O)[O-]
10.2

----------
Organism: Rattus norvegicus
Assay notes: Open TG-GATES - Regimen: Single
Type: toxicity, organism-based, Sprague-Dawley
Set-up: regimen Single, gender Male, age 6 weeks
Condition label: in vivo, po, 0 mg/kg, 9 h, tissue Blood, route gavage, dose level Control
Returns: string. Value is Satisfied if measured Neu is below 20%, and Not satisfied if it is greater than or equal to it.

Some solved cases for reference:
* COC(=O)C1=C(C)NC(C)=C(C(=O)OC)C1c1ccccc1[N+](=O)[O-] | Satisfied
* O=C(OC[C@H]1O[C@@H](OC(=O)c2cc(O)c(O)c(OC(=O)c3cc(O)c(O)c(O)c3)c2)[C@H](OC(=O)c2cc(O)c(O)c(OC(=O)c3cc(O)c(O)c(O)c3)c2)[C@@H](OC(=O)c2cc(O)c(O)c(OC(=O)c3cc(O)c(O)c(O)c3)c2)[C@@H]1OC(=O)c1cc(O)c(O)c(OC(=O)c2cc(O)c(O)c(O)c2)c1)c1cc(O)c(O)c(OC(=O)c2cc(O)c(O)c(O)c2)c1 | Satisfied

I wonder whether Brc1ccccc1 has Neu below 20%. Can you tell?
Not satisfied

----------
Species: Rattus norvegicus
Assay notes: Open TG-GATES - Regimen: Daily Repeat
Format: toxicity, organism-based, Sprague-Dawley
Design: regimen Daily Repeat, gender Male, age 6 weeks
Condition label: in vivo, po, 0 mg/kg, 72 h, tissue Blood, route gavage, dose level Control, time 3 day
Property measured: Eos (%)
Give just the number in %; leave the unit off.

What does the data say about its Eos? Entry: CN/C(=N/CCSCc1nc[nH]c1C)NC#N [CIMETIDINE]
0.6

----------
Species on record: Rattus norvegicus
Assay notes: Open TG-GATES - Regimen: Single
Assay type: toxicity, organism-based, Sprague-Dawley
Set-up: regimen Single, gender Male, age 6 weeks
Condition label: in vivo, po, 0 mg/kg, 6 h, tissue Plasma, route gavage, dose level Control
Property measured: AST (IU/L)
Give just the number in IU/L; leave the unit off.

// worked examples, AST included
• O=C(OC[C@H]1O[C@@H](OC(=O)c2cc(O)c(O)c(OC(=O)c3cc(O)c(O)c(O)c3)c2)[C@H](OC(=O)c2cc(O)c(O)c(OC(=O)c3cc(O)c(O)c(O)c3)c2)[C@@H](OC(=O)c2cc(O)c(O)c(OC(=O)c3cc(O)c(O)c(O)c3)c2)[C@@H]1OC(=O)c1cc(O)c(O)c(OC(=O)c2cc(O)c(O)c(O)c2)c1)c1cc(O)c(O)c(OC(=O)c2cc(O)c(O)c(O)c2)c1 = 61.8
• CS(=O)(=O)O.Cc1ccc(NC(=O)c2ccc(CN3CCN(C)CC3)cc2)cc1Nc1nccc(-c2cccnc2)n1 [IMATINIB MESYLATE] = 72.4
• NC1=NC(=O)C(c2ccccc2)O1 (stereo unspecified) = 72.8
• Cc1nnc2n1-c1ccc(Cl)cc1C(c1ccccc1Cl)=NC2 = 72
• CN/C(=N/CCSCc1nc[nH]c1C)NC#N = 70.2

What does the data say about its AST? Entry: CC(C)NNC(=O)c1ccncc1
71.6

----------
Species on record: Rattus norvegicus
Assay notes: Open TG-GATES - Regimen: Single
Format: toxicity, organism-based, Sprague-Dawley
Parameters: regimen Single, gender Male, age 6 weeks
Condition label: in vivo, po, 0 mg/kg, 3 h, tissue Plasma, route gavage, dose level Control
Property measured: BUN

What does the data say about its BUN? Entry: Nc1c2c(nc3ccccc13)CCCC2
13 mg/dL

What does the data say about its BUN? Entry: COC(=O)C1=C(C)NC(C)=C(C(=O)OC)C1c1ccccc1[N+](=O)[O-]
9.4 mg/dL

What does the data say about its BUN? Entry: CN1C(=O)CCS(=O)(=O)C1c1ccc(Cl)cc1 (centres undefined)
10.2 mg/dL

What does the data say about its BUN? Entry: Brc1ccccc1
10.2 mg/dL

----------
BUN values by entry
Organism: Rattus norvegicus
Assay notes: Open TG-GATES - Regimen: Single
Format: toxicity, organism-based, Sprague-Dawley
Design: regimen Single, gender Male, age 6 weeks
Condition label: in vivo, po, 0 mg/kg, 6 h, tissue Plasma, route gavage, dose level Control
Give just the number in mg/dL; leave the unit off.

What does the data say about its BUN? Entry: CNC(=C[N+](=O)[O-])NCCSCc1ccc(CN(C)C)o1
10.2

What does the data say about its BUN? Entry: CN(C)CCC(c1ccc(Cl)cc1)c1ccccn1 (stereo not drawn)
10.2

What does the data say about its BUN? Entry: COC(=O)C1=C(C)NC(C)=C(C(=O)OC)C1c1ccccc1[N+](=O)[O-]
9

What does the data say about its BUN? Entry: CN/C(=N/CCSCc1nc[nH]c1C)NC#N
10.2

What does the data say about its BUN? Entry: Nc1c2c(nc3ccccc13)CCCC2
10.8

What does the data say about its BUN? Entry: Cc1nnc2n1-c1ccc(Cl)cc1C(c1ccccc1Cl)=NC2
7.8

What does the data say about its BUN? Entry: CCCc1cc(=O)[nH]c(=S)[nH]1
11.8

What does the data say about its BUN? Entry: NC1=NC(=O)C(c2ccccc2)O1 (stereo not drawn)
8.2

----------
PL values by entry
Organism: Rattus norvegicus
Assay notes: Open TG-GATES - Regimen: Single
Type: toxicity, organism-based, Sprague-Dawley
Design: regimen Single, gender Male, age 6 weeks
Condition label: in vivo, po, 1000 mg/kg, 9 h, tissue Plasma, route gavage, dose level High
Give just the number in mg/dL; leave the unit off.

What does the data say about its PL? Entry: Cc1nnc2n1-c1ccc(Cl)cc1C(c1ccccc1Cl)=NC2 [TRIAZOLAM]
148

What does the data say about its PL? Entry: CN/C(=N/CCSCc1nc[nH]c1C)NC#N [CIMETIDINE]
150.4

What does the data say about its PL? Entry: CNC(=C[N+](=O)[O-])NCCSCc1ccc(CN(C)C)o1 [RANITIDINE]
152

----------
Plat values by entry
Organism: Rattus norvegicus
Assay notes: Open TG-GATES - Regimen: Daily Repeat
Type: toxicity, organism-based, Sprague-Dawley
Set-up: regimen Daily Repeat, gender Male, age 6 weeks
Condition label: in vivo, po, 300 mg/kg, 72 h, tissue Blood, route gavage, dose level Middle, time 3 day
Give just the number in x10_4/uL; leave the unit off.

// worked examples, Plat included
* Cc1nnc2n1-c1ccc(Cl)cc1C(c1ccccc1Cl)=NC2 | 108.5
* COC(=O)C1=C(C)NC(C)=C(C(=O)OC)C1c1ccccc1[N+](=O)[O-] | 123.7
* CCOc1ccc(NC(C)=O)cc1 | 119.3
* CNC(=C[N+](=O)[O-])NCCSCc1ccc(CN(C)C)o1 | 118.4

What does the data say about its Plat? Entry: CN/C(=N/CCSCc1nc[nH]c1C)NC#N
125.9

----------
GLC values by entry
Species: Rattus norvegicus
Assay notes: Open TG-GATES - Regimen: Daily Repeat
Type: toxicity, organism-based, Sprague-Dawley
Set-up: regimen Daily Repeat, gender Male, age 6 weeks
Condition label: in vivo, po, 0 mg/kg, […], tissue Plasma, route gavage, dose level Control, time 28 day
Give just the number in mg/dL; leave the unit off.

// worked examples, GLC included
• CCOc1ccc(NC(C)=O)cc1 = 185.2
• CNC(=C[N+](=O)[O-])NCCSCc1ccc(CN(C)C)o1 = 214.6

What does the data say about its GLC? Entry: Nc1c2c(nc3ccccc13)CCCC2
191.8

What does the data say about its GLC? Entry: CC(C)NNC(=O)c1ccncc1
190.8

What does the data say about its GLC? Entry: COC(=O)C1=C(C)NC(C)=C(C(=O)OC)C1c1ccccc1[N+](=O)[O-]
192.8
